These data points were gathered from patent US8637536B2.

molecular target: Lp-PLA2 from plasma (pooled human plasma) (Homo sapiens, UniProt Q13093); construct: 8 μL pooled human plasma; from tissue; host or cells: pooled human plasma; assay: Lp-PLA2 human plasma assay (Thio-PAF assay); type: biochemical; details: text thresholds, read-out: pIC50 values in the thio-PAF assay (converted)
Sequence (Q13093 22-441): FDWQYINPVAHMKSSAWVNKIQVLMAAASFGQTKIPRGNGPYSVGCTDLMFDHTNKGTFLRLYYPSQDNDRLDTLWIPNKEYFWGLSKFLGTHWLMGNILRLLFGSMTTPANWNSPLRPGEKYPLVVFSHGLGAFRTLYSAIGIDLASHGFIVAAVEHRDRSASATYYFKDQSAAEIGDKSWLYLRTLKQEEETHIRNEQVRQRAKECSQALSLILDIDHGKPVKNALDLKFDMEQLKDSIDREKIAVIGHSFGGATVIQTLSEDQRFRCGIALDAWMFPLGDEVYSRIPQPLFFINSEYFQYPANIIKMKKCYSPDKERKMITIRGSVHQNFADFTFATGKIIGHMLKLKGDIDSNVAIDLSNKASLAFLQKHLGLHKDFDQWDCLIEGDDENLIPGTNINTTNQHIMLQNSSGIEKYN
Counter-ions that a name gives are not always drawn.
propertyMeasured: IC50

Examples with answers:
Cn1cc(Cc2cn(C)c(SCc3ccc(Oc4cccc(C(F)(F)F)c4)c(C#N)c3)nc2=O)cn1 [E95, trifluoroacetic acid salt]	≤ 0.1 µM
O=c1nc(OCCc2ccc(Oc3ccc(Cl)c(C(F)(F)F)c3)cc2)[nH]cc1Cc1cnc(C(F)(F)F)nc1	≤ 1 µM
COc1ncc(Cc2c[nH]c(NCCc3ccc(Oc4ccc(C(F)(F)F)cn4)cc3)nc2=O)cn1	≤ 1 µM
O=c1nc(OCCc2cc(F)c(Oc3cnc(C(F)(F)F)nc3)c(F)c2)[nH]cc1Cc1cncnc1	≤ 0.1 µM
COc1ncc(Cc2c[nH]c(OCCc3ccc(Oc4ccc(C)c(Cl)c4)cc3)nc2=O)cn1	≤ 0.1 µM

Response field IC50 (Lp-PLA2 from plasma (pooled human plasma) (Homo sapiens, UniProt Q13093)) for item O=c1nc(OCCc2ccc(Oc3ccc(Cl)c(OC(F)(F)F)c3)cc2)[nH]cc1Cc1cncnc1 : ≤ 0.1 µM

Response field IC50 (Lp-PLA2 from plasma (pooled human plasma) (Homo sapiens, UniProt Q13093)) for item O=c1nc(NCCc2ccc(Oc3ccc(C(F)(F)F)cc3)cc2)[nH]cc1Cc1cncnc1 : ≤ 0.1 µM

Response field IC50 (Lp-PLA2 from plasma (pooled human plasma) (Homo sapiens, UniProt Q13093)) for item Cn1cc(Cc2cncnc2)c(=O)nc1OCCc1ccc(Oc2ccc(Cl)c(C(F)(F)F)c2)c(F)c1 : ≤ 0.1 µM

Response field IC50 (Lp-PLA2 from plasma (pooled human plasma) (Homo sapiens, UniProt Q13093)) for item O=c1nc(NCCc2ccc(Oc3ccc(Cl)c(C(F)(F)F)c3)cc2)[nH]cc1Cc1ccnnc1 : ≤ 0.1 µM
